target: Ribosomal protein S6 kinase alpha-4 (Homo sapiens); details: at 1 µM;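 also: mean inhibition of MSK2, GSK PKIS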
Form field: inhibition (one value per entry).
Answer with a number only, understood to be in %.

Here is how some molecules turned out for inhibition.
- molecule: "CCC(=O)Nc1ccc(C)c(-c2ccc(C(=O)NCC3CC3)cc2)c1"
  testSystem: "Ribosomal protein S6 kinase alpha-4 (Homo sapiens)"
  inhibition (%): 2.63
- molecule: "CCc1cccc(CC)c1/C=C/c1cncc(C(=O)NC)c1"
  testSystem: "Ribosomal protein S6 kinase alpha-4 (Homo sapiens)"
  inhibition (%): 2.52
- molecule: "c1ccc(Oc2ccc(Nc3ncc(-c4ccccc4)o3)cc2)cc1"
  testSystem: "Ribosomal protein S6 kinase alpha-4 (Homo sapiens)"
  inhibition (%): 3.78

Shift focus to the following entry.
inhibition for Ribosomal protein S6 kinase alpha-4 (Homo sapiens) with input `C[C@@H](Oc1cc(-n2cnc3ccc(OCC4CCN(C)CC4)cc32)sc1C(N)=O)c1ccccc1Cl` equals 7.58
